Please respond with reported TGI for every item in the list.
System: MCF7 breast
Experiment: NCI tumour cell line growth inhibition, 48 h
Only the number, expressed in µM, is required.

Indicate its recorded TGI; the molecule in question is O=CC1C(=O)Nc2nc3ccccc3n2C1c1ccccc1 (stereo unspecified)
27.4

Indicate its recorded TGI; the molecule in question is Nc1c2c(c(O)c3c1=C(CO)C=N3)=NCCS2=O (stereo unspecified)
2.83

Indicate its recorded TGI; the molecule in question is `COc1cc(Cl)c(C)cc1NC(=O)c1cc2ccccc2cc1O`
13.2

====

System: SNB-75 CNS
Assay: NCI tumour cell line growth inhibition, 48 h
measurement_type: TGI

Indicate its recorded TGI; the molecule in question is O=P1(NCCCl)OCCC(OO)N1CCCl (stereo unspecified)
97 µM

Indicate its recorded TGI; the molecule in question is `O=C(Nc1ccccn1)c1cc2c(cc1Cl)Sc1nccn1S2(=O)=O`
> 100 µM

Indicate its recorded TGI; the molecule in question is `COc1cccc(-c2nn(C)c3sc(C(=O)NCCN4CCN(c5ccccc5F)CC4)cc23)c1`
95.3 µM

Indicate its recorded TGI; the molecule in question is `Cc1cc(NS(=O)(=O)c2ccc(N=Nc3c(Nc4ccccc4)nn(-c4ccc(S(=O)(=O)Nc5ccncn5)cc4)c3C)cc2)no1`
> 100 µM

Indicate its recorded TGI; the molecule in question is C[C@]12CC[C@H](O)CC1CCC[C@@H]2O (stereo partly specified)
> 100 µM

Indicate its recorded TGI; the molecule in question is `O=C1/C=C/[C@@H](O)[C@@H]2C[C@@H](O)C[C@H]2/C=C/CCCCO1`
> 100 µM

Indicate its recorded TGI; the molecule in question is `CCOc1ccnc2c(OC)c(C)c3nc4ccccc4nc3c12`
> 100 µM

Indicate its recorded TGI; the molecule in question is CC1(C)C/C=C\CCC(O)C(O)CCC(C)(C)C1=O (stereo unspecified)
> 100 µM

Indicate its recorded TGI; the molecule in question is CC1=NN(c2cccc(S(=O)(=O)O)c2)C2(C1)SCC(=O)N2c1nc2ccccc2s1 (stereo unspecified)
> 100 µM

Indicate its recorded TGI; the molecule in question is `COc1ccc2c(c1)cn1c3ccc(OC)cc3[nH]c(=O)c21`
1.19 µM

Indicate its recorded TGI; the molecule in question is `CCOC(=O)CCNC(=O)c1cc(C)cc2c1Oc1c(cc(C)cc1C(=O)NCCC(=O)OCC)S2`
78.9 µM
